Biological target: Serine/threonine-protein kinase PLK1 (Homo sapiens)
Assay: Inhibition of PLK1 assessed as residual enzyme activity at 10 uM relative to untreated control
experimental-readout: Activity (%)

[[record]]
smiles_notation = "c1ccc2c(c1)[nH]c1c3cc[nH]c3ccc21"
experimental_system = "Serine/threonine-protein kinase PLK1 (Homo sapiens)"
number = 105

[[record]]
smiles_notation = "O=Cc1c[nH]c2c1ccc1c3ccccc3[nH]c12"
experimental_system = "Serine/threonine-protein kinase PLK1 (Homo sapiens)"
number = 91

[[record]]
smiles_notation = "c1ccc2c(c1)[nH]c1c2ccc2cc[nH]c21"
experimental_system = "Serine/threonine-protein kinase PLK1 (Homo sapiens)"
number = 111

[[record]]
smiles_notation = "O=Cc1c[nH]c2ccc3c4ccccc4[nH]c3c12"
experimental_system = "Serine/threonine-protein kinase PLK1 (Homo sapiens)"
number = 106


====

Biological target: Serine/threonine-protein kinase Nek7 (Homo sapiens)
Test: Inhibition of NEK7 assessed as residual enzyme activity at 10 uM relative to untreated control
experimental-readout: Activity (%)

[[record]]
smiles_notation = "c1ccc2c(c1)[nH]c1c2ccc2cc[nH]c21"
experimental_system = "Serine/threonine-protein kinase Nek7 (Homo sapiens)"
experimental_readout = "Activity"
unit_string = "%"
number = 96

[[record]]
smiles_notation = "O=Cc1c[nH]c2c1ccc1c3ccccc3[nH]c12"
experimental_system = "Serine/threonine-protein kinase Nek7 (Homo sapiens)"
experimental_readout = "Activity"
unit_string = "%"
number = 89

[[record]]
smiles_notation = "O=Cc1c[nH]c2ccc3c4ccccc4[nH]c3c12"
experimental_system = "Serine/threonine-protein kinase Nek7 (Homo sapiens)"
experimental_readout = "Activity"
unit_string = "%"
number = 95

[[record]]
smiles_notation = "c1ccc2c(c1)[nH]c1c3cc[nH]c3ccc21"
experimental_system = "Serine/threonine-protein kinase Nek7 (Homo sapiens)"
experimental_readout = "Activity"
unit_string = "%"
number = 92


====

Biological target: Mitogen-activated protein kinase 11 (Homo sapiens) (UniProt Q15759)
Sequence (Q15759 whole entry): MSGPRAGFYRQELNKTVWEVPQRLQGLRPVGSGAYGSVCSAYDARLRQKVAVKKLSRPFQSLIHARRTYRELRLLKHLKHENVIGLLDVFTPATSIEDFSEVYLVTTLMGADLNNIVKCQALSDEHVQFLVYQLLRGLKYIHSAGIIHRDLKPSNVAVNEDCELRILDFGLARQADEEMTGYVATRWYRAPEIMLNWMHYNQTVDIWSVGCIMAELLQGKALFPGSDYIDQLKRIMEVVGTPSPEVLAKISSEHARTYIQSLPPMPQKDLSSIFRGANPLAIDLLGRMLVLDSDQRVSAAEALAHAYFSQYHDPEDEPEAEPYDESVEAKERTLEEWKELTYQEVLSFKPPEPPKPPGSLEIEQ
Test: Inhibition of P38beta assessed as residual enzyme activity at 10 uM relative to untreated control
experimental-readout: Activity (%)

[[record]]
smiles_notation = "c1ccc2c(c1)[nH]c1c3cc[nH]c3ccc21"
unit_string = "%"
number = 91

[[record]]
smiles_notation = "c1ccc2c(c1)[nH]c1c2ccc2cc[nH]c21"
unit_string = "%"
number = 100

[[record]]
smiles_notation = "O=Cc1c[nH]c2c1ccc1c3ccccc3[nH]c12"
unit_string = "%"
number = 80

[[record]]
smiles_notation = "O=Cc1c[nH]c2ccc3c4ccccc4[nH]c3c12"
unit_string = "%"
number = 96


====

Target: MAP/microtubule affinity-regulating kinase 3 (Homo sapiens) (UniProt P27448)
Sequence (P27448 whole entry, looked up): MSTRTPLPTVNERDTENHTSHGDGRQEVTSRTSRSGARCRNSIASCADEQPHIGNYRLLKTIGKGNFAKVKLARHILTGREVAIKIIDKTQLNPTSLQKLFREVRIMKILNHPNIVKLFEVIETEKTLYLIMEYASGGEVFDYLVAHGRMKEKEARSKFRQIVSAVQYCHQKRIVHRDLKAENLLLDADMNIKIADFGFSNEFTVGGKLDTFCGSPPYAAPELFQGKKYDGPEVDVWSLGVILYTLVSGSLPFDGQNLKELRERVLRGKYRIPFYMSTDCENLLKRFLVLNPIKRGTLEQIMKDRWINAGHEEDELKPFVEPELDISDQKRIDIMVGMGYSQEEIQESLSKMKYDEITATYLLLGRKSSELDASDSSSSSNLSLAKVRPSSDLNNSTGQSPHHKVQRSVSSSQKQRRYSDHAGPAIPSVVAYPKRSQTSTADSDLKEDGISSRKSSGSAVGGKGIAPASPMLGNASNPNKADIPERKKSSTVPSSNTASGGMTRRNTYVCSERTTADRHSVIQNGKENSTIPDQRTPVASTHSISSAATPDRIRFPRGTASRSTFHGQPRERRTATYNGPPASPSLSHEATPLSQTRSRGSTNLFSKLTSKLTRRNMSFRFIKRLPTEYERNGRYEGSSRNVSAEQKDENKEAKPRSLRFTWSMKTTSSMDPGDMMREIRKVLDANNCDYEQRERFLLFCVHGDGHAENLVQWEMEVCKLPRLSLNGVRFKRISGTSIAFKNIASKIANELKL
Test: Inhibition of MARK3 assessed as residual enzyme activity at 10 uM relative to untreated control
experimental-readout: Activity (%)

[[record]]
smiles_notation = "c1ccc2c(c1)[nH]c1c2ccc2cc[nH]c21"
experimental_system = "MAP/microtubule affinity-regulating kinase 3 (Homo sapiens) (UniProt P27448)"
number = 116

[[record]]
smiles_notation = "c1ccc2c(c1)[nH]c1c3cc[nH]c3ccc21"
experimental_system = "MAP/microtubule affinity-regulating kinase 3 (Homo sapiens) (UniProt P27448)"
number = 94

[[record]]
smiles_notation = "O=Cc1c[nH]c2c1ccc1c3ccccc3[nH]c12"
experimental_system = "MAP/microtubule affinity-regulating kinase 3 (Homo sapiens) (UniProt P27448)"
number = 88

[[record]]
smiles_notation = "O=Cc1c[nH]c2ccc3c4ccccc4[nH]c3c12"
experimental_system = "MAP/microtubule affinity-regulating kinase 3 (Homo sapiens) (UniProt P27448)"
number = 105


====

Molecular target: Serine/threonine-protein kinase PAK 6 (Homo sapiens)
Assay: Inhibition of PAK6 assessed as residual enzyme activity at 10 uM relative to untreated control
experimental-readout: Activity (%)

[[record]]
smiles_notation = "c1ccc2c(c1)[nH]c1c2ccc2cc[nH]c21"
experimental_readout = "Activity"
number = 92

[[record]]
smiles_notation = "O=Cc1c[nH]c2c1ccc1c3ccccc3[nH]c12"
experimental_readout = "Activity"
number = 94

[[record]]
smiles_notation = "c1ccc2c(c1)[nH]c1c3cc[nH]c3ccc21"
experimental_readout = "Activity"
number = 91

[[record]]
smiles_notation = "O=Cc1c[nH]c2ccc3c4ccccc4[nH]c3c12"
experimental_readout = "Activity"
number = 99


====

Target: Calcium/calmodulin-dependent protein kinase kinase 1 (Homo sapiens) (UniProt Q8N5S9)
Sequence (Q8N5S9 whole entry, looked up): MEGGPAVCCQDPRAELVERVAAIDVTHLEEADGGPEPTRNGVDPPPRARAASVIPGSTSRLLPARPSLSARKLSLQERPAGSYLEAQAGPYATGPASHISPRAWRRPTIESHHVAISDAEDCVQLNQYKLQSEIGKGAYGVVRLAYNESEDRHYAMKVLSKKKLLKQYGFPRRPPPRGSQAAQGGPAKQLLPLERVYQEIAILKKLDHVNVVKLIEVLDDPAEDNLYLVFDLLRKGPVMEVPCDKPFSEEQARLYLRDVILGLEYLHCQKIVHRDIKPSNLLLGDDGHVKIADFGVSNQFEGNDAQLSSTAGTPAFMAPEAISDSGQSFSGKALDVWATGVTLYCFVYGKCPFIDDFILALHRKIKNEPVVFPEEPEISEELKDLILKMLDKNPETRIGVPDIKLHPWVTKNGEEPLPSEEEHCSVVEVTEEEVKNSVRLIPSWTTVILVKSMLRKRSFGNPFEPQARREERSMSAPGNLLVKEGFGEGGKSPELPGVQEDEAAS
Test: Inhibition of CAMKKalpha assessed as residual enzyme activity at 10 uM relative to untreated control
experimental-readout: Activity (%)

1 = O=Cc1c[nH]c2ccc3c4ccccc4[nH]c3c12
2 = O=Cc1c[nH]c2c1ccc1c3ccccc3[nH]c12
Task item: Select one: 1 or 2 . Criterion: greater recorded Activity. # respond with the chosen item's label
Reply: 1

====

Target: RAC-beta serine/threonine-protein kinase (Homo sapiens) (UniProt P31751)
Sequence (P31751 whole entry): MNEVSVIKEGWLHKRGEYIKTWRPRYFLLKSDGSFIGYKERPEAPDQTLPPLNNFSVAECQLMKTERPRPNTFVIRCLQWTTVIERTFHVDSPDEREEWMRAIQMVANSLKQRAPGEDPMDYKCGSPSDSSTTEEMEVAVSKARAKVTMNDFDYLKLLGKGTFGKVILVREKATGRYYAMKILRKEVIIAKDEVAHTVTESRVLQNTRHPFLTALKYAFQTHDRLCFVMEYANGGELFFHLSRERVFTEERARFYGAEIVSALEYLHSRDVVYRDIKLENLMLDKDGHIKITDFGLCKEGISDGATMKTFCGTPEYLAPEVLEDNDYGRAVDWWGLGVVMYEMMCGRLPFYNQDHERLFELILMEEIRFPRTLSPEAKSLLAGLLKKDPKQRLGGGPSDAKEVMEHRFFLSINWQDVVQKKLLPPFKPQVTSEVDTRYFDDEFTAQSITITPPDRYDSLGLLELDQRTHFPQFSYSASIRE
Test: Inhibition of PKBbeta assessed as residual enzyme activity at 10 uM relative to untreated control
experimental-readout: Activity (%)

[[record]]
smiles_notation = "O=Cc1c[nH]c2c1ccc1c3ccccc3[nH]c12"
experimental_readout = "Activity"
unit_string = "%"
number = 98

[[record]]
smiles_notation = "O=Cc1c[nH]c2ccc3c4ccccc4[nH]c3c12"
experimental_readout = "Activity"
unit_string = "%"
number = 107

[[record]]
smiles_notation = "c1ccc2c(c1)[nH]c1c2ccc2cc[nH]c21"
experimental_readout = "Activity"
unit_string = "%"
number = 107

[[record]]
smiles_notation = "c1ccc2c(c1)[nH]c1c3cc[nH]c3ccc21"
experimental_readout = "Activity"
unit_string = "%"
number = 107


====

Molecular target: Serine/threonine-protein kinase pim-1 (Homo sapiens) (UniProt P11309)
Sequence (P11309 whole entry, looked up): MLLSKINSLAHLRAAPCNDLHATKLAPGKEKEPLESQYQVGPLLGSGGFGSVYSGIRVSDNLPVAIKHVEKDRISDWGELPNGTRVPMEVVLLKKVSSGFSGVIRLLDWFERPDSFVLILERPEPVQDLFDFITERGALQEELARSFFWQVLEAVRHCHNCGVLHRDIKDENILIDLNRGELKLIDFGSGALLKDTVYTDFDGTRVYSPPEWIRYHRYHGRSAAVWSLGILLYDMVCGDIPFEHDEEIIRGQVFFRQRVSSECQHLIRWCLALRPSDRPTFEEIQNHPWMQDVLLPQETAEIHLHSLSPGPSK
Experiment: Inhibition of Pim-1 assessed as residual enzyme activity at 10 uM relative to untreated control
experimental-readout: Activity (%)

// worked examples, Activity included
[[record]]
smiles_notation = "O=Cc1c[nH]c2c1ccc1c3cc(-c4ccc(F)cc4F)ccc3[nH]c12"
experimental_readout = "Activity"
number = 6

[[record]]
smiles_notation = "O=S(=O)(c1ccccc1)n1ccc2ccc3c4ccccc4[nH]c3c21"
experimental_readout = "Activity"
number = 61

[[record]]
smiles_notation = "CCN(CC)C(=O)/C(=N\\O)c1c[nH]c2c1ccc1c3ccccc3[nH]c12"
experimental_readout = "Activity"
number = 41

[[record]]
smiles_notation = "O=C(c1c[nH]c2c1ccc1c3ccccc3[nH]c12)C(F)(F)F"
experimental_readout = "Activity"
number = 20

[[record]]
smiles_notation = "O=Cc1c[nH]c2c1ccc1c3cc(-c4ccc(-c5ccccc5)cc4)ccc3[nH]c12"
experimental_readout = "Activity"
number = 39


A = OCc1c[nH]c2c1ccc1c3ccccc3[nH]c12
B = O=Cc1c[nH]c2c1ccc1c3cc(-c4ccc(F)cc4)ccc3[nH]c12
C = O=Cc1c[nH]c2c1ccc1c3cc(Br)ccc3[nH]c12
Task item: Please produce an ascending ranking of these compounds based on Activity. # answer = labels listed in requested order
Reply: C, B, A

I = O=Cc1c[nH]c2ccc3c4ccccc4[nH]c3c12
II = O=Cc1c[nH]c2c1ccc1c3cc(-c4ccc(C(F)(F)F)cc4)ccc3[nH]c12
Task item: Kindly compare I with II and tell me which has the lower Activity figure. # respond with the chosen item's label
Reply: II
(II: 28%, I: 79%)

1 = Brc1ccc2[nH]c3c(ccc4cc[nH]c43)c2c1
2 = c1ccc2c(c1)[nH]c1c3cc[nH]c3ccc21
Task item: Kindly compare 1 with 2 and tell me which has the lower Activity figure. # respond with the chosen item's label
Reply: 1
(1: 12%, 2: 53%)

====

Target: Serine/threonine-protein kinase pim-3 (Homo sapiens) (UniProt Q86V86)
Experiment: Inhibition of Pim-3 assessed as residual enzyme activity at 1 uM relative to untreated control
experimental-readout: Activity (%)

a = O=S(=O)(c1ccccc1)n1ccc2ccc3c4ccccc4[nH]c3c21
b = O=C(c1c[nH]c2c1ccc1c3ccccc3[nH]c12)C(F)(F)F
Task item: Kindly compare a with b and tell me which has the lower Activity figure. # respond with the chosen item's label
Reply: b
(b: 20%, a: 102%)

A = O=Cc1c[nH]c2c1ccc1c3cc(-c4ccc(F)cc4F)ccc3[nH]c12
B = OCCc1c[nH]c2c1ccc1c3ccccc3[nH]c12
Task item: Kindly compare A with B and tell me which has the lower Activity figure. # respond with the chosen item's label
Reply: A

====

Target: Serine/threonine-protein kinase pim-1 (Homo sapiens)
Experiment: Inhibition of Pim-1 assessed as residual enzyme activity at 1 uM relative to untreated control
experimental-readout: Activity (%)

[[record]]
smiles_notation = "O=Cc1c[nH]c2c1ccc1c3cc(-c4ccc(F)cc4)ccc3[nH]c12"
experimental_readout = "Activity"
number = 65

[[record]]
smiles_notation = "O=S(=O)(c1ccccc1)n1ccc2ccc3c4ccccc4[nH]c3c21"
experimental_readout = "Activity"
number = 83

[[record]]
smiles_notation = "O=Cc1c[nH]c2c1ccc1c3cc(-c4ccc(C(F)(F)F)cc4)ccc3[nH]c12"
experimental_readout = "Activity"
number = 79

[[record]]
smiles_notation = "OCc1c[nH]c2c1ccc1c3ccccc3[nH]c12"
experimental_readout = "Activity"
number = 72

[[record]]
smiles_notation = "CCN(CC)C(=O)/C(=N\\O)c1c[nH]c2c1ccc1c3ccccc3[nH]c12"
experimental_readout = "Activity"
number = 80

[[record]]
smiles_notation = "Brc1ccc2[nH]c3c(ccc4cc[nH]c43)c2c1"
experimental_readout = "Activity"
number = 69

